Test system: HBMEC monolayer
READOUT: Te % (SEM) 2 h

// worked examples, Te % (SEM) 2 h included
Checklist item: Te % (SEM) 2 h tested on HBMEC monolayer, entry O=C(O)c1ccc(O)cc1 , value? 25.5 (1.8) %

Checklist item: Te % (SEM) 2 h tested on HBMEC monolayer, entry C=CC1(C)CCC(=C(C)C)CC1C(=C)C (stereo not shown) , value? 30.1 (0.1) %

Checklist item: Te % (SEM) 2 h tested on HBMEC monolayer, entry C=C1CC[C@H]2O[C@]2(C)CC[C@@H]2[C@@H]1CC2(C)C [Caryophyllene oxide] , value? 67.7 (0.9) %

Checklist item: Te % (SEM) 2 h tested on HBMEC monolayer, entry C/C=C/C(=O)C1=C(C)CC(O)CC1(C)C (stereo not drawn) [3-hydroxy-β-damascone] , value? 84.5 (3.2) %

Checklist item: Te % (SEM) 2 h tested on HBMEC monolayer, entry COc1cc(/C=C/C(=O)O)cc(OC)c1O , value? 35.6 (2.0)/n.d %

Checklist item: Te % (SEM) 2 h tested on HBMEC monolayer, entry Cc1c(O)cc2c(c1C)O[C@](C)(CCC[C@H](C)CCC[C@H](C)CCCC(C)C)CC2 , value? 31.5 (0.8)/27.3 (2.1) %

The record that follows has no Te % (SEM) 2 h shown yet.
Checklist item: Te % (SEM) 2 h tested on HBMEC monolayer, entry CC[C@@H](CC[C@@H](C)[C@H]1CC[C@H]2[C@@H]3CC=C4C[C@@H](O)CC[C@]4(C)[C@H]3CC[C@]12C)C(C)C , value? 12.9 (0.6)/11.3 (0.5) %

---

Test system: HBMEC monolayer
Task for the reader: assign each of the following compounds its reported Te % (SEM) 2 h.

// worked examples, Te % (SEM) 2 h included
Any idea what Te % (SEM) 2 h was measured for C=C1/C=C/[C@H](C(C)C)CC/C(C)=C/CC1 ? 3.2 (0.2) %

Any idea what Te % (SEM) 2 h was measured for C=C(C)[C@@H]1CCC2=CCC[C@@H](C)[C@]2(C)C1 ? 51.9 (4.2) %

Any idea what Te % (SEM) 2 h was measured for CC1(C)C[C@H](O)C[C@]2(C)OC(=O)C=C12 [Isololiolide] ? 33.0 (2.6) %

Any idea what Te % (SEM) 2 h was measured for CC(C)=CCC/C(C)=C/CC/C(C)=C/CC/C(C)=C/CO ? 30.2 (1.1) %

State recorded Te % (SEM) 2 h for all listed compounds.
1. C[C@@H]1CC[C@@H]2[C@@H]1[C@H]1[C@@H](CC[C@@]2(C)O)C1(C)C [(-)-Globulol]
2. C=C(C)[C@H]1CC=C(C)CC1
3. C=C(C)C1CCC2(C)OC2C1 (stereo not shown) [Limonene Epoxide]

["44.1 (3.6) %", "33.6 (2.3) %", "19.5 (1.2) %"]

---

Tested on: HBMEC monolayer
MEASUREMENT CONTEXT: human
READOUT: Te % (SEM) 4 h

// worked examples, Te % (SEM) 4 h included
Any idea what Te % (SEM) 4 h was measured for O=C(/C=C/c1ccc(O)c(O)c1)O[C@H](Cc1ccc(O)c(O)c1)C(=O)O [Rosmarinic acid] ? 90.3 (4.2) %

Any idea what Te % (SEM) 4 h was measured for O=C(O)C=Cc1ccc(O)cc1 [p-Coumaric acid] ? 37.8 (2.5) %

Any idea what Te % (SEM) 4 h was measured for C[C@H]1[C@H](C)CC[C@]2(CO)CC[C@]3(C)C(=CC[C@@H]4[C@@]5(C)CC[C@H](O)C(C)(C)[C@@H]5CC[C@]43C)[C@H]12 (single isomer, unassigned) [Uvaol Isomer II, Uvaol] ? 38.3 (0.7) %

Any idea what Te % (SEM) 4 h was measured for C=CC(C)(O)CCC=C(C)CCC=C(C)C (mixture of isomers) [Nerolidol] ? 59.8 (2.4) %

State recorded Te % (SEM) 4 h for all listed compounds.
1. C[C@H]1[C@H](C)CC[C@]2(CO)CC[C@]3(C)C(=CC[C@@H]4[C@@]5(C)CC[C@H](O)C(C)(C)[C@@H]5CC[C@]43C)[C@H]12 (single isomer, unassigned) [Uvaol Isomer I, Uvaol]
2. CC1(C)CCCC2(C)OC(=O)C=C12 (stereo not shown) [Dihydroactinidiolide]
3. CC[C@H](/C=C/[C@@H](C)[C@H]1CC[C@H]2[C@@H]3CC=C4C[C@@H](O)CC[C@]4(C)[C@H]3CC[C@]12C)C(C)C [Stigmasterol]
4. C=C(C)[C@@H]1CCC2=CC(=O)C[C@@H](C)[C@]2(C)C1 [Nootkatone]

1: 38.8 (3.2) %; 2: 51.8 (3.0) %; 3: 64.5 (0.4) %; 4: 43.0 (3.4) %

State recorded Te % (SEM) 4 h for all listed compounds.
1. CC(C)=CCC/C(C)=C\CO [Nerol]
2. COc1cc(C=O)cc(OC)c1O [Syringaldehyde]

41.5 (3.1) %
45.7 (3.2)/42.0 (1.4) %

Sourced from paper PMC9820279
